Catalogue of compounds with associated pIC50
# measured_on: HIV-integrase (Human immunodeficiency virus type 1 group M subtype B, UniProt P12497)
# Construct: Recombinant integrase (0.26 ng) was incubated with the beads
# experimental_details: HIV-Integrase Inhibition Activity (SPA bead integration assay with P33 labeled target DNA)
# Assay type: biochemical
# test_settings: recombinant integrase, class symbols; read-out: in vitro activity
pIC50: −log10 of the molar value.

{"columns": ["compound", "pIC50"],
 "data": [
  ["CO[C@@H]1C[C@@H](C(=O)NC23CCC(CC2)Cn2c3nc(C(=O)NCc3ccc(F)cc3)c(O)c2=O)N(C(C)=O)C1", "> 8.00"],
  ["CN(C)C(=O)C(=O)NC12CCC(CC1)Cn1c2nc(C(=O)NCc2ccc(F)c(C(F)F)c2)c(O)c1=O", "> 8.00"],
  ["CC(=O)N1CCC1C(=O)NC12CCC(CC1)Cn1c2nc(C(=O)NCc2ccc(F)c(C)c2)c(O)c1=O (stereo in doubt)", "> 8.00"],
  ["CS(=O)(=O)NC12CCC(CC1)n1c2nc(C(=O)NCc2ccc(F)cc2)c(O)c1=O", "> 8.00"],
  ["COc1cc(CNC(=O)c2nc3n(c(=O)c2O)CC2CCC3(NC(=O)C(=O)N(C)C)CC2)ccc1F", "> 8.00"],
  ["CN(C)C(=O)C(=O)NC12CCC(CC1)Cn1c2nc(C(=O)NCCc2cccc(Cl)c2)c(O)c1=O", "> 8.00"],
  ["O=C(NC12CCC(CC1)Cn1c2nc(C(=O)NCc2ccc(F)cc2)c(O)c1=O)C(=O)N1CC[C@@H](F)C1", "> 8.00"],
  ["CN(C)C(=O)C(=O)NC12CCC(CC1)Cn1c2nc(C(=O)NCc2ccc(F)c(F)c2)c(O)c1=O", "> 8.00"],
  ["CN(C)C(=O)C(=O)NC12CCC(CC1)Cn1c2nc(C(=O)NCc2ccc(F)c(C(F)(F)F)c2)c(O)c1=O", "> 8.00"],
  ["Cc1nn(C)cc1CN(C)C(=O)C(=O)NC12CCC(CC1)Cn1c2nc(C(=O)NCc2ccc(F)cc2)c(O)c1=O", "> 8.00"],
  ["Cc1cc(CNC(=O)c2nc3n(c(=O)c2O)CC2CCC3(N(C)C(=O)C(=O)N(C)CC3CCCO3)CC2)ccc1F (stereo not shown)", "> 8.00"],
  ["O=C(NC12CCC(CC1)Cn1c2nc(C(=O)NCc2ccc(F)cc2)c(O)c1=O)c1ccnc(OCC(F)(F)F)c1", "> 8.00"],
  ["Cc1cc(CNC(=O)c2nc3n(c(=O)c2O)CC2CCC3(NC(=O)[C@H]3CCN(C(=O)c4cc(C)n(C)n4)C3)CC2)ccc1F", "7.00 to 8.00"],
  ["Cc1c(C(=O)NC23CCC(CC2)Cn2c3nc(C(=O)NCc3ccc(F)cc3)c(O)c2=O)ncn1C", "> 8.00"],
  ["Cc1cc(CNC(=O)c2nc3n(c(=O)c2O)CC2CCC3(NC(=O)C3(c4ccccn4)CC3)CC2)ccc1F", "> 8.00"],
  ["O=C(NC12CCC(CC1)Cn1c2nc(C(=O)NCc2ccc(F)cc2)c(O)c1=O)NS(=O)(=O)c1ccccc1", "> 8.00"],
  ["CN(C)S(=O)(=O)NC12CCC(CC1)Cn1c2nc(C(=O)NCc2ccc(F)cc2)c(O)c1=O", "> 8.00"],
  ["CN(CCF)C(=O)C(=O)NC12CCC(CCn3c1nc(C(=O)NCc1ccc(F)cc1)c(O)c3=O)C2 (stereo not shown)", "> 8.00"],
  ["CN(C)C(=O)C(=O)NC12CCC(Cn3c1nc(C(=O)NCc1ccc(F)cc1)c(O)c3=O)C2 (single isomer, unassigned) [Example 412]", "> 8.00"],
  ["CN(C(=O)c1ccncc1)C12CCC(CC1)Cn1c2nc(C(=O)NCc2ccc(F)cc2)c(O)c1=O", "> 8.00"],
  ["Cn1ccc(C(=O)NC23CCC(CC2)Cn2c3nc(C(=O)NCc3ccc(F)cc3)c(O)c2=O)n1", "> 8.00"],
  ["Cc1oncc1S(=O)(=O)NC12CCC(CC1)Cn1c2nc(C(=O)NCc2ccc(F)cc2)c(O)c1=O", "> 8.00"],
  ["CO[C@H]1C[C@@H](C(=O)NC23CCC(CC2)Cn2c3nc(C(=O)NCc3ccc(F)c(C)c3)c(O)c2=O)N(C(=O)c2cc(C)on2)C1", "> 8.00"],
  ["CN(C)C(=O)C(=O)NC12CCC(CC1)Cn1c2nc(C(=O)NCCc2ccccc2Cl)c(O)c1=O", "7.00 to 8.00"],
  ["CCCOC(=O)N1CCCC1C(=O)NC12CCC(CC1)Cn1c2nc(C(=O)NCc2ccc(F)cc2)c(O)c1=O (stereo not shown)", "> 8.00"],
  ["NC(=S)NC12CCC(CC1)Cn1c2nc(C(=O)NCc2ccc(F)cc2)c(O)c1=O", "> 8.00"],
  ["Cc1cc(C(=O)NC23CCC(CC2)Cn2c3nc(C(=O)NCc3ccc(F)cc3)c(O)c2=O)nn1C", "> 8.00"],
  ["CNC(=O)N1CCCC1C(=O)NC12CCC(CC1)Cn1c2nc(C(=O)NCc2ccc(F)cc2)c(O)c1=O (stereo not shown)", "> 8.00"]
]}

Ref: patent US8129398B2
